These data points were gathered from patent US5840917A.

# reported pIC50; entries follow
assayed_target: Helicobacter pylori-derived urease (Helicobacter pylori)
Construct: an urease solution prepared from Helicobacter pylori; endogenous in cells
Sequence (P69996 whole entry, looked up): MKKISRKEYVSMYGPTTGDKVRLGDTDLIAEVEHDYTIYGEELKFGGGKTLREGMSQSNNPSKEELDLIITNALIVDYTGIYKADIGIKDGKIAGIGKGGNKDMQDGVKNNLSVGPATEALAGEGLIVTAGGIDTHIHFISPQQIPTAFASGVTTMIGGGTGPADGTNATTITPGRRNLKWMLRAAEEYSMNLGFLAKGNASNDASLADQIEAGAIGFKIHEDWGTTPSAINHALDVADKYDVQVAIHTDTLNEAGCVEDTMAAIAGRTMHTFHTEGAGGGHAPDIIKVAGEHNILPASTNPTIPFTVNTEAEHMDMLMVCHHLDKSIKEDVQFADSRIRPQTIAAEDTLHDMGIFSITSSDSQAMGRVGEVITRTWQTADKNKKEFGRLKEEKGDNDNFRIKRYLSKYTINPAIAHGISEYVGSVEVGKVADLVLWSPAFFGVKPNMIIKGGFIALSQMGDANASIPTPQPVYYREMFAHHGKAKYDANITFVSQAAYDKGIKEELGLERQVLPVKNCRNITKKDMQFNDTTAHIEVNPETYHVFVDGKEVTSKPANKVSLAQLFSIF
test: Screening of urease inhibitors (ammonia yield from urea)
Assay type: biochemical
pIC50 field: float, defined as -log10 of concentration (mol/L).

compound: NP(N)(=O)NC(=O)CSc1ccc(F)cc1
observable: pIC50
value: 8.55
--
compound: CCc1ccc(C(=O)NP(N)(N)=O)s1
observable: pIC50
value: 7.89
--
compound: NP(N)(=O)NC(=O)c1ccc([N+](=O)[O-])cc1 [Reference Example 3, N-(Diaminophosphinyl)-4-nitrobenzamide]
observable: pIC50
value: 8.18
--
compound: NP(N)(=O)NC(=O)c1ccsc1Cl
observable: pIC50
value: 8.77
--
compound: NP(N)(=O)NC(=O)c1cccc2ccccc12
observable: pIC50
value: 7.89
--
compound: NP(N)(=O)NC(=O)c1sccc1Cl
observable: pIC50
value: 8.96
--
compound: NP(N)(=O)NC(=O)c1cc(Br)cs1
observable: pIC50
value: 8.37
--
compound: NP(N)(=O)NC(=O)c1ccsc1
observable: pIC50
value: 7.80

Query `NP(N)(=O)NC(=O)Cc1noc2ccccc12` on Helicobacter pylori-derived urease (Helicobacter pylori); pIC50 returned: 7.66

Query `Cc1cc(C(=O)NP(N)(N)=O)c(C)s1` on Helicobacter pylori-derived urease (Helicobacter pylori); pIC50 returned: 8.06

Query `NP(N)(=O)NC(=O)C=Cc1cc(Br)cs1` on Helicobacter pylori-derived urease (Helicobacter pylori); pIC50 returned: 8.09

Query `Cc1occc1C(=O)NP(N)(N)=O` on Helicobacter pylori-derived urease (Helicobacter pylori); pIC50 returned: 8.10

###

assayed_target: Helicobacter pylori-derived urease (Helicobacter pylori)
Construct: an urease solution prepared from Helicobacter pylori; endogenous in cells
test: Screening of urease inhibitors (ammonia yield from urea)
Assay type: biochemical
// assign Condition met if IC50 falls strictly below 5 nM, else Condition not met (ties count as Condition not met)

Reference set, count: 5
molecule: COc1ccc(C(=O)NP(N)(N)=O)s1
assigned_class: Condition not met

molecule: NP(N)(=O)NC(=O)c1cccc([N+](=O)[O-])c1 [Reference Example 23, N-(Diaminophosphinyl)-3-nitrobenzamide]
assigned_class: Condition not met

molecule: NP(N)(=O)NC(=O)COc1ccc([N+](=O)[O-])cc1
assigned_class: Condition not met

molecule: NP(N)(=O)NC(=O)C=Cc1ccc(F)cc1
assigned_class: Condition not met

molecule: NP(N)(=O)NC(=O)c1ccc(Br)o1
assigned_class: Condition met

Kindly consider the entry below.
In: Problem: For the molecule `NP(N)(=O)NC(=O)C=Cc1cccs1` , is IC50 under 5 nM?
Out: Condition met
